target: IDO1 (Homo sapiens); construct: endogenous in cells; test: IDO1 cell-based assay; conditions: HeLa cells, 10 ng/mL IFNgamma, 24 hours with test compound; N-Formyl Kynurenine and L-tryptophan quantified by RFMS
Sequence (P14902 whole entry): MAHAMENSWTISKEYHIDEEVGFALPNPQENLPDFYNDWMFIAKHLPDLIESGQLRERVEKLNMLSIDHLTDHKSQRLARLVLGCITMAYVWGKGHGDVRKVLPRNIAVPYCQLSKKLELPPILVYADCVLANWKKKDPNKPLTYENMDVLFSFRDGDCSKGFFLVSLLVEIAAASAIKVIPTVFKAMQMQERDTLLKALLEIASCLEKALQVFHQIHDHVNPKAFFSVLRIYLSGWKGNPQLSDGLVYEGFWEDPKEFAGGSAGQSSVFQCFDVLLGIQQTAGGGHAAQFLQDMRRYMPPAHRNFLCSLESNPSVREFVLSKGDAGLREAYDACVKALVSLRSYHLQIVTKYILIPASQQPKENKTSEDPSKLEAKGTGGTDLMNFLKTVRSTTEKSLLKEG
Measured Parameter: IC50

Molecule | Measured Parameter | Result
CC(C(=O)Nc1cc(C2CC2)nn1C)[C@H]1[C@@H]2C[C@@H](n3cnc4cc(F)c(F)cc43)C[C@@H]21 (stereo partly shown) | IC50 | 589 nM
C[C@H](C(=O)Nc1ccc(-c2ccc(C(F)(F)F)nc2)cc1)[C@H]1[C@@H]2C[C@@H](n3cnc4cc(F)c(F)cc43)C[C@@H]21 | IC50 | 568 nM
CC(C(=O)NC1CCC(F)(F)CC1)[C@H]1[C@@H]2C[C@@H](n3cnc4cc(F)c(F)cc43)C[C@@H]21 (stereo partly shown) | IC50 | 192 nM
CCC(C(=O)Nc1ccc(C(N)=O)cn1)[C@H]1[C@@H]2C[C@@H](Oc3ccnc4ccc(F)cc34)C[C@@H]21 (stereo partly shown) | IC50 | 21.3 nM
CC(C(=O)Nc1cnc(Br)cn1)[C@H]1[C@@H]2C[C@@H](n3cnc4cc(F)c(F)cc43)C[C@@H]21 (stereo partly shown) | IC50 | 2.4 nM
CC(C(=O)Nc1ccn(C)n1)[C@H]1[C@@H]2C[C@@H](n3cnc4cc(F)c(F)cc43)C[C@@H]21 (stereo partly shown) | IC50 | 179 nM
CC(C(=O)NC12CC(C(C)O)(C1)C2)[C@H]1[C@@H]2C[C@@H](n3cnc4cc(F)c(F)cc43)C[C@@H]21 (stereo partly shown) | IC50 | 626 nM
CC(C(=O)Nc1ccc(C(F)(F)F)cn1)[C@H]1[C@@H]2C[C@@H](Oc3ccnc4ccc(F)cc34)C[C@@H]21 (stereo partly shown) | IC50 | 3.7 nM
CC(C(=O)NC12CC(C#N)(C1)C2)[C@H]1[C@@H]2C[C@@H](n3cnc4cc(F)c(F)cc43)C[C@@H]21 (stereo partly shown) | IC50 | 1650 nM
CC(C(=O)Nc1ccc(F)cn1)[C@H]1[C@@H]2C[C@@H](n3cnc4cc(F)c(F)cc43)C[C@@H]21 (stereo partly shown) | IC50 | 5.1 nM
Cc1ccc(-c2ccc(NC(=O)[C@@H](C)[C@H]3[C@@H]4C[C@@H](n5cnc6cc(F)c(F)cc65)C[C@@H]43)cc2)cn1 | IC50 | 261 nM
O=C(O)C(C1CC1)[C@H]1[C@@H]2C[C@@H](Oc3ccnc4ccc(F)cc34)C[C@@H]21 (stereo partly shown) | IC50 | 6310 nM
C[C@H](C(=O)Nc1ccc(-c2cnn(CC(=O)O)c2)cc1)[C@H]1[C@@H]2C[C@@H](n3cnc4cc(F)c(F)cc43)C[C@@H]21 | IC50 | 5550 nM
CC(C(=O)NC12CC(c3ccc(F)cc3)(C1)C2)[C@H]1[C@@H]2C[C@@H](Oc3ccnc4ccc(F)cc34)C[C@@H]21 (stereo partly shown) | IC50 | 45.3 nM
CC(C(=O)Nc1nnc(C(F)(F)F)[nH]1)[C@H]1[C@@H]2C[C@@H](Oc3ccnc4ccc(F)cc34)C[C@@H]21 (stereo partly shown) | IC50 | 156 nM
COc1ccc(-c2ccc(NC(=O)[C@@H](C)[C@H]3[C@@H]4C[C@@H](n5cnc6cc(F)c(F)cc65)C[C@@H]43)cc2)cn1 | IC50 | 329 nM
